Test system: VDR:RXRa (NR concentration 270 nM, RXRa partner concentration 90 nM)
Assay Details: PBM binding z-score (relative to random genomic background probes); higher = stronger binding; sequences stand for … in GC…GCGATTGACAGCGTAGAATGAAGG
PBM binding z-score below 2 gives class 0; PBM binding z-score at or above it gives class 1.

-- ask Is PBM binding z-score at least 2? Consider `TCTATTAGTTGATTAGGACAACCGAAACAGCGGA`
-- reply class 0

-- ask Is PBM binding z-score at least 2? Consider `CGAAATAGGTCATCCAGGACAGTGAATACATTGA`
-- reply class 1

-- ask Is PBM binding z-score at least 2? Consider `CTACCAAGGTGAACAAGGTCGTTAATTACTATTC`
-- reply class 1

-- ask Is PBM binding z-score at least 2? Consider `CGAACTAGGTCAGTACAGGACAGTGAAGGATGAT`
-- reply class 0

-- ask Is PBM binding z-score at least 2? Consider `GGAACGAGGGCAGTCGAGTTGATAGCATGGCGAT`
-- reply class 0

-- ask Is PBM binding z-score at least 2? Consider `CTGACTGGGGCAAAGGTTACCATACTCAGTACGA`
-- reply class 1

---

Tested on: PPARg:RXRa 30nM:10nM, anti-RXR (NR concentration 30 nM, RXRa partner concentration 10 nM)
Assay Details: PBM binding z-score (relative to random genomic background probes); higher = stronger binding; sequences stand for … in GC…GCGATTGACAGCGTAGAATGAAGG
PBM binding z-score below 0.7 gives n; PBM binding z-score at or above it gives y.

-- ask Is PBM binding z-score at least 0.7? Consider `ATCTCTAGGTAAAAGTTCACTGAATCCCGAGGAT`
-- reply y

-- ask Is PBM binding z-score at least 0.7? Consider `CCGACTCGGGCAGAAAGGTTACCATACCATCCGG`
-- reply n

-- ask Is PBM binding z-score at least 0.7? Consider `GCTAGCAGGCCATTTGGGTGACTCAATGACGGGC`
-- reply n

-- ask Is PBM binding z-score at least 0.7? Consider `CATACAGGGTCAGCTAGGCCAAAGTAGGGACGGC`
-- reply y

-- ask Is PBM binding z-score at least 0.7? Consider `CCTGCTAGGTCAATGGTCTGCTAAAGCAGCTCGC`
-- reply n

-- ask Is PBM binding z-score at least 0.7? Consider `TGAATGAGGTTATAAGATTAGGGAACGTTGCAAA`
-- reply y

---

System: LXRb:RXRa (NR concentration 270 nM, RXRa partner concentration 90 nM)
Assay Details: PBM binding z-score (relative to random genomic background probes); higher = stronger binding; sequences stand for … in GC…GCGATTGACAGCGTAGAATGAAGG
Readout Label: PBM binding z-score
Simply state the number, no unit and no words.

-- ask Please report PBM binding z-score with LXRb:RXRa (NR concentration 270 nM, RXRa partner concentration 90 nM) for item `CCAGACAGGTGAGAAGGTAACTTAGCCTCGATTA` .
-- reply 0.0826

-- ask Please report PBM binding z-score with LXRb:RXRa (NR concentration 270 nM, RXRa partner concentration 90 nM) for item `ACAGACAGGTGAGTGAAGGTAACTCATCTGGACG` .
-- reply -0.512

-- ask Please report PBM binding z-score with LXRb:RXRa (NR concentration 270 nM, RXRa partner concentration 90 nM) for item `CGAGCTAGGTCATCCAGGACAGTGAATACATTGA` .
-- reply 1.96

-- ask Please report PBM binding z-score with LXRb:RXRa (NR concentration 270 nM, RXRa partner concentration 90 nM) for item `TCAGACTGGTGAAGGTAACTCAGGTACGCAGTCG` .
-- reply 0.192

-- ask Please report PBM binding z-score with LXRb:RXRa (NR concentration 270 nM, RXRa partner concentration 90 nM) for item `ACAGACAGGTGAGTGAAGGTATCTCAGCTGGACG` .
-- reply -0.625

-- ask Please report PBM binding z-score with LXRb:RXRa (NR concentration 270 nM, RXRa partner concentration 90 nM) for item `CCTAGCAGGACAATCTGGGTCACTCAAGGCTTGA` .
-- reply 0.742

-- ask Please report PBM binding z-score with LXRb:RXRa (NR concentration 270 nM, RXRa partner concentration 90 nM) for item `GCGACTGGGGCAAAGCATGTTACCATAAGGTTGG` .
-- reply -0.192

-- ask Please report PBM binding z-score with LXRb:RXRa (NR concentration 270 nM, RXRa partner concentration 90 nM) for item `CAGCCTAGGTCAGGGCCACTATAGGAGGAACGTT` .
-- reply 0.816

-- ask Please report PBM binding z-score with LXRb:RXRa (NR concentration 270 nM, RXRa partner concentration 90 nM) for item `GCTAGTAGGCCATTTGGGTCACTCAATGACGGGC` .
-- reply -0.044

-- ask Please report PBM binding z-score with LXRb:RXRa (NR concentration 270 nM, RXRa partner concentration 90 nM) for item `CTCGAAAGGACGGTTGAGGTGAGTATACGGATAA` .
-- reply -0.303

-- ask Please report PBM binding z-score with LXRb:RXRa (NR concentration 270 nM, RXRa partner concentration 90 nM) for item `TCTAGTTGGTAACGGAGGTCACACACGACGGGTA` .
-- reply 3.27

-- ask Please report PBM binding z-score with LXRb:RXRa (NR concentration 270 nM, RXRa partner concentration 90 nM) for item `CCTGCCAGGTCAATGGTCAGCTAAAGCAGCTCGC` .
-- reply 1.96
